# target.or.system: Histidine--tRNA ligase (Trypanosoma cruzi (strain CL Brener)) (UniProt Q4DA54)
# Sequence (whole entry): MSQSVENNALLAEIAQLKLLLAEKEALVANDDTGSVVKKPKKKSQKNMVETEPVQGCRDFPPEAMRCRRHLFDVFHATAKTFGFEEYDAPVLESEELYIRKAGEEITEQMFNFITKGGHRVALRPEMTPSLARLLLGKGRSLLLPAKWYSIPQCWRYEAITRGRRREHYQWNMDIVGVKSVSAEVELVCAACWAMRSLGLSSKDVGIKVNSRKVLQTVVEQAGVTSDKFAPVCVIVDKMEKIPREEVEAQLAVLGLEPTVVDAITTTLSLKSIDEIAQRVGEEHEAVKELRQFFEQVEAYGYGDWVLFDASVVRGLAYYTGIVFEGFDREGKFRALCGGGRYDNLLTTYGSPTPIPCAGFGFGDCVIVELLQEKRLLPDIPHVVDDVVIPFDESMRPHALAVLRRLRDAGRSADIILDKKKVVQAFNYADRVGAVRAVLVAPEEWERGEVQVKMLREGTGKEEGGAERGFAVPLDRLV
# measurement.description: Trypanosoma cruzi histidyl tRNA synthetase (Tc-HisRS)
# Format: functional
# Set-up: scale not given: direction of the effect not stated beside the values
# assay.context: 30 µM
The campaign covered roughly 69,000 compounds. About 30 (0.04%) showed an effect of 50% or more. This is one part of a sample in which strong results are shown more often than they occur.
In this section we review reported Percent Effect values for a set of compounds.
// units = %; emit number, no label

Cc1ccc(N2CCC3(CC2)COCCN(c2nccs2)C3)nn1 = 62.3
CC(C)=CCN1C(=O)[C@H]2CC[C@@H]1CN(c1ncccc1C(N)=O)C2 = -2.41
CCCn1cc(NC(=O)c2ccncc2)ccc1=O = 38.3
CN(C)C(=O)CN1C[C@H]2CCN(C(=O)c3ccccc3)CC[C@H]2S1(=O)=O = 4.3
Cc1cc(C)nc(N2C[C@H]3OC(=O)N(CCc4cccc(Cl)c4)[C@H]3C2)n1 = 7.82
CN1CCCCC1c1ncc2c(n1)CCN(Cc1ccc(Cl)c(F)c1)C2 (stereo not given) = 30

Reported Percent Effect of "Cc1noc(C)c1CN1CCO[C@H]2CN(Cc3ccc(F)cc3)C[C@H]21" : 7.2

// field: Percent Effect; key: "CCCN1CC[C@@H]2[C@@H](CO[C@H]2CNC(=O)c2nccn2C)C1" ; value = 3.09

Lab note: measured Percent Effect of "O=C(c1ccsc1)N1C[C@H]2CN(Cc3cccc(F)c3)C(=O)[C@H]2C1" was 7.84

The compound listed as "Cn1cc(C(=O)N[C@H]2CN(S(C)(=O)=O)[C@@H]3CCCO[C@H]23)cn1" shows Percent Effect equal to 4.9
